Ref: paper PMC6320938

Test: in vivo
Settings: rat, in vivo, po, 3.75 g/kg, MRT0–∞, rat plasma, oral raw Atractylodis Rhizoma 3.75 g/kg, mean ± SD, n = 5
readout_name: MRT inf (h)
Enter your answer as a number in h; do not include the unit.

Query: Which MRT inf reading was recorded for the compound CC(C)(OC1OC(CO)C(O)C(O)C1O)C1CCC(O)(CO)C2CC(=O)C(C)(O)C2C1 (stereo not shown) [Atractyloside A] ?
Response: 6.05

----------
Assay: in vivo
Details: rat, in vivo, po, 3.75 g/kg, Cmax
Procedure: The validated UPLC-MS/MS method was used to measure atractylenolides I, II, and III, and atractyloside A simultaneously in rat plasma after oral administration of raw and wheat bran-processed Atractylodis Rhizoma at a dose of 3.75 g/kg. […] A UPLC system (Acquity, Waters, Milford, MA, USA) coupled with a mass spectrometer detector (XEVO-TQ-S, Waters) was used. […] The injection volume was 2 µL and the eluent was detected by mass spectrometry with electrospray ionization (ESI) in positive scan mode. […]
readout_name: Cmax (ng/mL)
The figure you give is taken to be in ng/mL; do not add the unit.

Query: For the molecule C=C1CCC[C@]2(C)C[C@]3(O)OC(=O)C(C)=C3C[C@@H]12 [Atractylenolide III] , what Cmax is on record?
Response: 87

----------
Test: in vivo
Details: rat, in vivo, po, 3.75 g/kg, t1/2, rat plasma, oral wheat bran-processed Atractylodis Rhizoma 3.75 g/kg, mean ± SD, n = 5
readout_name: half-life (h)
Unit h implied. Number only.

Query: Which half-life is reported for this compound? CC(C)(OC1OC(CO)C(O)C(O)C1O)C1CCC(O)(CO)C2CC(=O)C(C)(O)C2C1 (stereo not shown) [Atractyloside A]
Response: 2.55

----------
Assay: in vivo
Conditions: rat, in vivo, po, 3.75 g/kg, t1/2
Description: The validated UPLC-MS/MS method was used to measure atractylenolides I, II, and III, and atractyloside A simultaneously in rat plasma after oral administration of raw and wheat bran-processed Atractylodis Rhizoma at a dose of 3.75 g/kg. […] A UPLC system (Acquity, Waters, Milford, MA, USA) coupled with a mass spectrometer detector (XEVO-TQ-S, Waters) was used. […] The injection volume was 2 µL and the eluent was detected by mass spectrometry with electrospray ionization (ESI) in positive scan mode. […]
readout_name: half-life
Answer with the number, then the unit.

Query: Name the reported half-life value associated with the molecule C=C1CCC[C@]2(C)C[C@]3(O)OC(=O)C(C)=C3C[C@@H]12 [Atractylenolide III]
Response: 1.56 h

----------
Assay: in vivo
Details: rat, in vivo, po, 3.75 g/kg, MRT0–∞, rat plasma, oral wheat bran-processed Atractylodis Rhizoma 3.75 g/kg, mean ± SD, n = 5
readout_name: MRT inf
Enter the number, and then the unit.

Query: Would you mind telling me what MRT inf value was observed for CC(C)(OC1OC(CO)C(O)C(O)C1O)C1CCC(O)(CO)C2CC(=O)C(C)(O)C2C1 (stereo not shown) [Atractyloside A] ?
Response: 4.87 h

----------
Test: in vivo
Settings: rat, in vivo, po, 3.75 g/kg, Tmax
readout_name: Tmax (h)
Respond numerically; units are h and should not be typed.

Query: Which Tmax value belongs to C=C1CCC[C@]2(C)C[C@]3(O)OC(=O)C(C)=C3C[C@@H]12 [Atractylenolide III] ?
Response: 1
